# target: feline FcRn complex (FcRn-α subunit and β-microglobulin), biotin labeled (feline)
# procedureText: SPR, pH 7.4
Could you please report measured pKd for the items listed next?
Give bare numbers, as −log10 of the molar value.

Before answering, review these 3 worked examples.
feline IgG1a S252Y/L314K/S434Y (antibody, part only; not given: Variable domains, not shown: another chain or arm of the molecule; small tags and cut ends) constant: ASTTAPSVFPLAPSCGTTSGATVALACLVLGYFPEPVTVSWNSGALTSGVHTFPAVLQASGLYSLSSMVTVPSSRWLSDTFTCNVAHPPSNTKVDKTVRKTDHPPGPKPCDCPKCPPPEMLGGPSIFIFPPKPKDTLYISRTPEVTCLVVDLGPDDSDVQITWFVDNTQVYTAKTSPREEQFNSTYRVVSVLPILHQDWKKGKEFKCKVNSKSLPSPIERTISKAKGQPHEPQVYVLPPAQEELSRNKVSVTCLIKSFHPPDIAVEWEITGQPEPENNYRTTPPQLDSDGTYFVYSKLSVDRSHWQRGNTYTCSVSHEALHYHHTQKSLTQSPGK    8.55
feline IgG1a S252Y/S428M/S434L (antibody, part only; not given: Variable domains, not shown: another chain or arm of the molecule) constant: ASTTAPSVFPLAPSCGTTSGATVALACLVLGYFPEPVTVSWNSGALTSGVHTFPAVLQASGLYSLSSMVTVPSSRWLSDTFTCNVAHPPSNTKVDKTVRKTDHPPGPKPCDCPKCPPPEMLGGPSIFIFPPKPKDTLYISRTPEVTCLVVDLGPDDSDVQITWFVDNTQVYTAKTSPREEQFNSTYRVVSVLPILHQDWLKGKEFKCKVNSKSLPSPIERTISKAKGQPHEPQVYVLPPAQEELSRNKVSVTCLIKSFHPPDIAVEWEITGQPEPENNYRTTPPQLDSDGTYFVYSKLSVDRSHWQRGNTYTCSVMHEALHLHHTQKSLTQSPGK    7.54
feline IgG1a Q311I (antibody, part only; not given: Variable domains, not shown: another chain or arm of the molecule) constant: ASTTAPSVFPLAPSCGTTSGATVALACLVLGYFPEPVTVSWNSGALTSGVHTFPAVLQASGLYSLSSMVTVPSSRWLSDTFTCNVAHPPSNTKVDKTVRKTDHPPGPKPCDCPKCPPPEMLGGPSIFIFPPKPKDTLSISRTPEVTCLVVDLGPDDSDVQITWFVDNTQVYTAKTSPREEQFNSTYRVVSVLPILHIDWLKGKEFKCKVNSKSLPSPIERTISKAKGQPHEPQVYVLPPAQEELSRNKVSVTCLIKSFHPPDIAVEWEITGQPEPENNYRTTPPQLDSDGTYFVYSKLSVDRSHWQRGNTYTCSVSHEALHSHHTQKSLTQSPGK    7.11

Each binder below has a reported value. Please supply its pKd.
1. feline IgG1a S428Y/Q311W/L314K (antibody, part only; not given: Variable domains, not shown: another chain or arm of the molecule) constant: ASTTAPSVFPLAPSCGTTSGATVALACLVLGYFPEPVTVSWNSGALTSGVHTFPAVLQASGLYSLSSMVTVPSSRWLSDTFTCNVAHPPSNTKVDKTVRKTDHPPGPKPCDCPKCPPPEMLGGPSIFIFPPKPKDTLSISRTPEVTCLVVDLGPDDSDVQITWFVDNTQVYTAKTSPREEQFNSTYRVVSVLPILHWDWKKGKEFKCKVNSKSLPSPIERTISKAKGQPHEPQVYVLPPAQEELSRNKVSVTCLIKSFHPPDIAVEWEITGQPEPENNYRTTPPQLDSDGTYFVYSKLSVDRSHWQRGNTYTCSVYHEALHSHHTQKSLTQSPGK
2. feline IgG1a S252Y/Q311W/L314K (antibody, part only; not given: Variable domains, not shown: another chain or arm of the molecule) constant: ASTTAPSVFPLAPSCGTTSGATVALACLVLGYFPEPVTVSWNSGALTSGVHTFPAVLQASGLYSLSSMVTVPSSRWLSDTFTCNVAHPPSNTKVDKTVRKTDHPPGPKPCDCPKCPPPEMLGGPSIFIFPPKPKDTLYISRTPEVTCLVVDLGPDDSDVQITWFVDNTQVYTAKTSPREEQFNSTYRVVSVLPILHWDWKKGKEFKCKVNSKSLPSPIERTISKAKGQPHEPQVYVLPPAQEELSRNKVSVTCLIKSFHPPDIAVEWEITGQPEPENNYRTTPPQLDSDGTYFVYSKLSVDRSHWQRGNTYTCSVSHEALHSHHTQKSLTQSPGK
3. feline IgG1a L309G (antibody, part only; not given: Variable domains, not shown: another chain or arm of the molecule) constant: ASTTAPSVFPLAPSCGTTSGATVALACLVLGYFPEPVTVSWNSGALTSGVHTFPAVLQASGLYSLSSMVTVPSSRWLSDTFTCNVAHPPSNTKVDKTVRKTDHPPGPKPCDCPKCPPPEMLGGPSIFIFPPKPKDTLSISRTPEVTCLVVDLGPDDSDVQITWFVDNTQVYTAKTSPREEQFNSTYRVVSVLPIGHQDWLKGKEFKCKVNSKSLPSPIERTISKAKGQPHEPQVYVLPPAQEELSRNKVSVTCLIKSFHPPDIAVEWEITGQPEPENNYRTTPPQLDSDGTYFVYSKLSVDRSHWQRGNTYTCSVSHEALHSHHTQKSLTQSPGK

Result:
[6.46, 6.75, 7.26]

Each binder below has a reported value. Please supply its pKd.
1. feline IgG1a S252H/S434F (antibody, part only; not given: Variable domains, not shown: another chain or arm of the molecule) constant: ASTTAPSVFPLAPSCGTTSGATVALACLVLGYFPEPVTVSWNSGALTSGVHTFPAVLQASGLYSLSSMVTVPSSRWLSDTFTCNVAHPPSNTKVDKTVRKTDHPPGPKPCDCPKCPPPEMLGGPSIFIFPPKPKDTLHISRTPEVTCLVVDLGPDDSDVQITWFVDNTQVYTAKTSPREEQFNSTYRVVSVLPILHQDWLKGKEFKCKVNSKSLPSPIERTISKAKGQPHEPQVYVLPPAQEELSRNKVSVTCLIKSFHPPDIAVEWEITGQPEPENNYRTTPPQLDSDGTYFVYSKLSVDRSHWQRGNTYTCSVSHEALHFHHTQKSLTQSPGK
2. feline IgG1a Q311W/D312P (antibody, part only; not given: Variable domains, not shown: another chain or arm of the molecule) constant: ASTTAPSVFPLAPSCGTTSGATVALACLVLGYFPEPVTVSWNSGALTSGVHTFPAVLQASGLYSLSSMVTVPSSRWLSDTFTCNVAHPPSNTKVDKTVRKTDHPPGPKPCDCPKCPPPEMLGGPSIFIFPPKPKDTLSISRTPEVTCLVVDLGPDDSDVQITWFVDNTQVYTAKTSPREEQFNSTYRVVSVLPILHWPWLKGKEFKCKVNSKSLPSPIERTISKAKGQPHEPQVYVLPPAQEELSRNKVSVTCLIKSFHPPDIAVEWEITGQPEPENNYRTTPPQLDSDGTYFVYSKLSVDRSHWQRGNTYTCSVSHEALHSHHTQKSLTQSPGK

Result:
1: 7.62; 2: 7.30

Ask: Give a short answer stating reported pKd for feline IgG1a S252H/L314K (antibody, part only; not given: Variable domains, not shown: another chain or arm of the molecule; small tags and cut ends) constant: ASTTAPSVFPLAPSCGTTSGATVALACLVLGYFPEPVTVSWNSGALTSGVHTFPAVLQASGLYSLSSMVTVPSSRWLSDTFTCNVAHPPSNTKVDKTVRKTDHPPGPKPCDCPKCPPPEMLGGPSIFIFPPKPKDTLHISRTPEVTCLVVDLGPDDSDVQITWFVDNTQVYTAKTSPREEQFNSTYRVVSVLPILHQDWKKGKEFKCKVNSKSLPSPIERTISKAKGQPHEPQVYVLPPAQEELSRNKVSVTCLIKSFHPPDIAVEWEITGQPEPENNYRTTPPQLDSDGTYFVYSKLSVDRSHWQRGNTYTCSVSHEALHSHHTQKSLTQSPGK .
Result: 7.70
